- System: Phytophthora infestans
- Format: in vivo, Phytophthora infestans on tomato
- Condition Notes: hydrazone 50 ppm + 50 μM CuCl2.2H2O, applied 24 h before inoculation, assessed 7 days after inoculation, tomato
Experimental Readout: TLB % Control (%)
Entry rule: numbers only, all in %.

Task: Given the entry O=C(N/N=C/c1cc(Cl)cc(Cl)c1O)c1ccc(C(F)(F)F)cc1 [Example 81] , report its measured TLB % Control.
Result: 97.0

Task: If you can, please state the reported TLB % Control value of C/C(=N\NC(=O)c1ccccc1Br)c1cc(Cl)cc(Cl)c1O [Example 57] .
Result: 89.5

Task: Give its TLB % Control value. Item: COc1ccc(/C(C)=N/NC(=O)c2ccccc2Cl)c(O)c1 [Example 284]
Result: 74.0

Task: Fill in the blank: the reported TLB % Control of Cc1cc(C)cc(C(=O)N/N=C/c2cc(Cl)cc(Cl)c2O)c1 [Example 102] is ____.
Result: 74.0

Task: Requested field: TLB % Control. Item: C/C(=N\NC(=O)c1ccccc1)c1cc(Br)ccc1O [Example 287]
Result: 65.0

Task: Return reported TLB % Control; argument: O=C(N/N=C/c1cc(Br)ccc1O)c1cccc(Cl)c1 [Example 176]
Result: 61.4

Task: What does the record list as TLB % Control for C/C(=N\NC(=O)c1ccccc1)c1cc(Cl)cc(Cl)c1O [Example 60] ?
Result: 85.0

Task: Would you kindly share the measured TLB % Control for C/C(=N\NC(=O)c1cccc(C)c1)c1ccc(Cl)cc1O [Example 253] ?
Result: 14.0

Task: Fill blank: measured TLB % Control of the molecule C/C(=N\NC(=O)c1ccc(Cl)cc1)c1cc(Br)ccc1O [Example 293] is ____.
Result: 19.0

Task: Any idea what its TLB % Control is? The molecule is O=C(N/N=C/c1cc([N+](=O)[O-])cc(Br)c1O)c1ccccc1 [Example 153]
Result: 34.6

Task: Quick check: TLB % Control of C/C(=N\NC(=O)c1ccccc1C(F)(F)F)c1ccccc1O [Example 58] ?
Result: 49.0

Task: Looking for the measured TLB % Control of O=C(N/N=C/c1cc(Br)cc(Br)c1O)c1cc(I)ccc1Cl [Example 226] , can you help?
Result: 71.0

Task: Dear colleague, I am looking for the recorded TLB % Control of the following molecule: O=C(N/N=C/c1cc(Br)cc(Br)c1O)c1cccc(Cl)c1 [Example 122]
Result: 92.7

Task: I'd like to know its TLB % Control. The molecule in question is C/C(=N\NC(=O)c1cccc([N+](=O)[O-])c1)c1ccccc1O [Example 37]
Result: 33.0

---

- Tested on: Leptosphaeria nodorum (LEPTNO)
- Protocol Description: In vitro fungitoxicity of hydrazones with and without copper towards Leptosphaeria nodorum (Example 26)
- Assay type: cell-based
- Condition Notes: Parastagonospora nodorum, 72 h, copper-minus medium; test compound Concn. 0.05 μg/mL; 72 h at 25° C.; read-out: LEPTNO % Inhn. Minus Copper Observed
Experimental Readout: inhibition of growth at 0.05 µg/mL (%)
The reply should contain only the number, in %.

Task: Would you kindly share the measured inhibition of growth at 0.05 µg/mL for C/C(=N\NC(=O)c1ccccc1O)c1cc(C(F)(F)F)ccc1O ?
Result: 12.4

Task: Query (compound): C/C(=N\NC(=O)c1cccc(C)c1)c1cccc(Cl)c1O ; field requested: inhibition of growth at 0.05 µg/mL
Result: 0

Task: Endpoint output: inhibition of growth at 0.05 µg/mL of COc1ccc(/C(C)=N/NC(=O)c2ccc(Br)cc2)c(O)c1OC . Value?
Result: 10

Task: # query: inhibition of growth at 0.05 µg/mL of entry O=C(N/N=C/c1cc(C(F)(F)F)cc(Cl)c1O)c1ccccc1C(F)(F)F
Result: 5.3

Task: Look up inhibition of growth at 0.05 µg/mL: O=C(N/N=C/c1cccc(Cl)c1O)c1ccc(Cl)cc1
Result: 44.1

Task: Please report the recorded inhibition of growth at 0.05 µg/mL for C/C(=N\NC(=O)c1ccc(C(F)(F)F)cc1)c1cc(Br)ccc1O .
Result: 24.2
